Molecular target: T1, full length recombinant human 2N4R tau (amino acids 1-441) (human, UniProt P10636 1-758)
T1 construct: Bought (rPeptide); recombinant, non-phosphorylated; also called recombinant tau
T1 sequence (P10636 other isoform, or with tags, fused parts or gaps limits assumed): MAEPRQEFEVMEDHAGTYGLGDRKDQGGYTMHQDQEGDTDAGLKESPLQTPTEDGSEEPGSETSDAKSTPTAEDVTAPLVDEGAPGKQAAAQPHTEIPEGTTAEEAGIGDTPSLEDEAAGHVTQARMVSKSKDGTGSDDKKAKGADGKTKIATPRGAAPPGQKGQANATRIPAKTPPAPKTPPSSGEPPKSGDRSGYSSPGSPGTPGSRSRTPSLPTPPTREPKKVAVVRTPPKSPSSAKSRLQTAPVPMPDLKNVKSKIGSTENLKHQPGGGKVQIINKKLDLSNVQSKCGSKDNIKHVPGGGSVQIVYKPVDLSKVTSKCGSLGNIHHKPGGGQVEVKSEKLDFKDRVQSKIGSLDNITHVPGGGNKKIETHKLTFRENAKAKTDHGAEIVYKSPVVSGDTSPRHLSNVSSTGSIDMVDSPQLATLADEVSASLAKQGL
Test: SPR Biacore SCK, IgG on Protein A, tau analyte
As shown below, each of these binders has a reported Relative KD value.
# number only, unit fold vs VH0VK0 dropped from output

Binder	Quantity name	Test result
Clone 32 (VH5Vκ4), humanised variant of clone #28, human IgG1 (antibody, V domains shown, also called VH5VK4; VH5Vk4) VH: QVQLQESGPGLVKPSETLSLTCTVSGFSLNNYDMSWVRQAPGKGLEWIGTVSTTYRRYYASWAKGRFTISRDNSKNTLDLQMTSLTAEDTATYFCAASGIWGRGTLVTVSS VL: DIQMTQSPSTLSASVGDRVTITCQSSQRVYSNYLAWYQQKPGQPPKRLIFLASTLESGVPSRFSGSGSGTEFTLTISSLQPDDFATYYCAGTYTGSIWAFGGGTKVEIK	Relative KD	1.49
Clone 33 (VH5Vκ5), humanised variant of clone #28, human IgG1 (antibody, V domains shown, also called VH5VK5) VH: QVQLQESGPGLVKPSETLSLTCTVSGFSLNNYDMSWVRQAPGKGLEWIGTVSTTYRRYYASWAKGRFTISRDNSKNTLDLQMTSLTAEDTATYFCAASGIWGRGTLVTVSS VL: DIQMTQSPSTLSASVGDRVTITCQSSQRVSSSYLAWYQQKPGQPPKRLIFLASTLESGVPSRFSGSGSGTEFTLTISSLQPDDFATYYCAGTYTGSIWAFGGGTKVEIK	Relative KD	1.34
Clone 37 (VH6Vκ5), humanised variant of clone #28, human IgG1 (antibody, V domains shown, also called VH6VK5) VH: QVQLQESGPGLVKPSETLSLTCTVSGFSLNNYDMSWVRQAPGKGLEWIGTVSTTYRRYYADSVKGRFTISRDNSKNTLDLQMTSLTAEDTATYFCAASGIWGRGTLVTVSS VL: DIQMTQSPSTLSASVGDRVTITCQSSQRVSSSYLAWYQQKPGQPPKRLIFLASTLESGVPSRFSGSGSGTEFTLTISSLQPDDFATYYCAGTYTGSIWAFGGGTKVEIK	Relative KD	2.72
Clone 34 (VH6Vκ1), humanised variant of clone #28, human IgG1 (antibody, V domains shown, also called VH6VK1) VH: QVQLQESGPGLVKPSETLSLTCTVSGFSLNNYDMSWVRQAPGKGLEWIGTVSTTYRRYYADSVKGRFTISRDNSKNTLDLQMTSLTAEDTATYFCAASGIWGRGTLVTVSS VL: AQVLTQSTSPLSASVGDRVTITCQSSQRVYSNYLAWYQQKPGQPPKRLIFLASTLESGVPSRFSGSGSGTEFTLTISSLQCDDFATYYCAGTYTGSIWAFGGGTEVVIK	Relative KD	3.11

Note: attention shifts to another entry.
// Relative KD lookup, key: Clone 24 (VH3Vκ4), humanised variant of clone #28, human IgG1 (antibody, V domains shown, also called VH3VK4; VH3Vk4) VH: QVQLQESGPGLVKPSETLSLTCTVSGFSLNNYDMSWVRQAPGKGLEWIGTVSTTYRRYYASWAKGRFTISKTSSTTVDLQMTSLTAEDTATYFCAASGIWGRGTLVTVSS VL: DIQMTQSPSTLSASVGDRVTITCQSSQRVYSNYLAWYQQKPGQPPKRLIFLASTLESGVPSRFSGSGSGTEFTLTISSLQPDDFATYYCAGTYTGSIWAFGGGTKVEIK
0.47
